B1: CPEB3 Ribozyme (parent)
chain: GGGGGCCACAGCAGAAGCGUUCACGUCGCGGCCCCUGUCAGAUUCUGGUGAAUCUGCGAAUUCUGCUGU

- Variants of: B1
- assay_remarks: self-cleavage, relative activity (ratio to wild type); higher = more cleavage; co-transcriptional
Use 0.2 as the dividing line for self-cleavage, with the line itself on the Y side and lower values as N.

The following variants have reported results that may help.
* G31C U53C | Y
* A60G G68A | Y
* G28A U62G | Y
* C34A U46A | Y
* G19A C34G | N
* G17U U44G | Y
* U26A G56A | Y
* G2C G65U | N
* G14C C35A | N
* C12U G14U | Y

Say whether A13U U20A shows self-cleavage of 0.2 or more. N

What would you report for C12A C27G ? N

What would you report for A10C C22A ? N

What would you report for G3C G28U ? N

What would you report for U38A A42C ? Y

What would you report for U21C C29A ? Y

What would you report for A16G G19U ? N

What would you report for U21C U67G ? Y

What would you report for C12A G37C ? N

What would you report for A23U A42C ? Y
